- experimental.system: AXL (Homo sapiens, UniProt P30530)
- Sequence (P30530 26-894): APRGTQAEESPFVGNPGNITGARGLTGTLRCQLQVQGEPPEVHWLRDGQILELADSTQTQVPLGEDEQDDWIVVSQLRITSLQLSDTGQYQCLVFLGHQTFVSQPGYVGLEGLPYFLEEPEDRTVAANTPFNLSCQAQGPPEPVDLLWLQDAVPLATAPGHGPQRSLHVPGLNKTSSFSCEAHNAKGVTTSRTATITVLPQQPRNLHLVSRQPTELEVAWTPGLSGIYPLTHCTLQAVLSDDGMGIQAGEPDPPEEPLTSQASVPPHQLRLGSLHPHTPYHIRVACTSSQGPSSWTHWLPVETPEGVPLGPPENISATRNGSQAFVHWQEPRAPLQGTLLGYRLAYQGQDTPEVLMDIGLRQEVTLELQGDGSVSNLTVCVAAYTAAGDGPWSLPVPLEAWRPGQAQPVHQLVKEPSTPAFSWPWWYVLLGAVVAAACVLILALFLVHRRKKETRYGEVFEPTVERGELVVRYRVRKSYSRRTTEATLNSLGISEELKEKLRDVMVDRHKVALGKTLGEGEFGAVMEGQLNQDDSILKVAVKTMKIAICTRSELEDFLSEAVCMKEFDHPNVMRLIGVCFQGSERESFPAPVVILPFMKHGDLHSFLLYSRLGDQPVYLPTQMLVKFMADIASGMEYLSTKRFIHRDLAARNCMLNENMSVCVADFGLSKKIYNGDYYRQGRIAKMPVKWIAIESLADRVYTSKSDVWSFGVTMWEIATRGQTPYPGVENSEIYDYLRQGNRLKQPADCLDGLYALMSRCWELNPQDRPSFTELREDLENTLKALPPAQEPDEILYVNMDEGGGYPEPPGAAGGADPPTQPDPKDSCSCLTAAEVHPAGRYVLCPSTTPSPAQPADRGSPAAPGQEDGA
- test.name: Enzymatic kinase assay (ADP-GLO), AXL
- Format: biochemical
- experimental.setup: 10 μM ATP, poly (Glu4, Tyr1) substrate, 60 min room temperature, luminescence
As shown below, each of these molecules has a reported IC50 value.

// query Bench note: what IC50 did COCCONC(=O)C#Cc1c(Oc2ccc(NC(=O)c3ccnn(-c4ccc(F)cc4)c3=O)cc2F)ccnc1N show?
// result < 100 nM

// query Given COCCN1CCN(C(=O)C#Cc2c(Oc3ccc(NC(=O)c4ccnn(-c5ccc(F)cc5)c4=O)cc3F)ccnc2N)CC1 , state its recorded IC50.
// result < 10 nM

* * *

- experimental.system: UniProt Q12866
- Sequence (Q12866 21-999): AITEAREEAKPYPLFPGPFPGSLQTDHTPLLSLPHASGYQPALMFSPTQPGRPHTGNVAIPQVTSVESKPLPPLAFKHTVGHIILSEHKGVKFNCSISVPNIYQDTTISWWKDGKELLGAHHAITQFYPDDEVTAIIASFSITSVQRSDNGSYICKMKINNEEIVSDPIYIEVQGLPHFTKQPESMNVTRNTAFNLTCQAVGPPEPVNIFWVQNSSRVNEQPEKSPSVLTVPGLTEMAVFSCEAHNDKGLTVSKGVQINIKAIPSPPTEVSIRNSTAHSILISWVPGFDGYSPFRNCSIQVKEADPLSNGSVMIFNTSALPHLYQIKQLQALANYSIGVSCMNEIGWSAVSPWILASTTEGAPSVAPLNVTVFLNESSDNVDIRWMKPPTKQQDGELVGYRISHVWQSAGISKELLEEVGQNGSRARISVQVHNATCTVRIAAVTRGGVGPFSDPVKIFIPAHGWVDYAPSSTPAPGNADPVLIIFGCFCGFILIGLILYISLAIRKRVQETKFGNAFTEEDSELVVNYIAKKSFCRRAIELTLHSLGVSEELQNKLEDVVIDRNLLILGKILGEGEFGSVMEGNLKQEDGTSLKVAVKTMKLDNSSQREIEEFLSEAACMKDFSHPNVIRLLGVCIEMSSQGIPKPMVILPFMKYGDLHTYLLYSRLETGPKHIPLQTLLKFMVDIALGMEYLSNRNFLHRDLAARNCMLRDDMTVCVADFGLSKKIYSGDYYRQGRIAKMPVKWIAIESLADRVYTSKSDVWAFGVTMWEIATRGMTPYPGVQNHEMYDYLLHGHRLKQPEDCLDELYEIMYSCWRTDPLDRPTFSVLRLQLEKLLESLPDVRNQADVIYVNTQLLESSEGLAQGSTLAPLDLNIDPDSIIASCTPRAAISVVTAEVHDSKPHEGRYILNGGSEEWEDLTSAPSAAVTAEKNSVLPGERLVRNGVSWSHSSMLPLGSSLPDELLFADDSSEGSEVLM
- test.name: Enzymatic kinase assay (ADP-GLO), MER
- Type: biochemical
- experimental.setup: 10 μM ATP, poly (Glu4, Tyr1) substrate, 60 min room temperature, luminescence
measure: IC50

Here's what some known entries look like.
>>> df
                                 smiles_str  experimental_system  measure  endpoint_result
0  Nc1nccc(Oc2ccc(NC(=O)c3ccnn(-c4ccc(F)cc4)c3=O)cc2F)c1C#CC1CCNCC1       UniProt Q12866     IC50        > 1000 nM
1  CCCn1cc(-c2c(Oc3ccc(NC(=O)c4ccnn(-c5ccc(F)cc5)c4=O)cc3F)ccnc2N)cn1       UniProt Q12866     IC50         < 100 nM
2  COCCON(C)C(=O)C#Cc1c(Oc2ccc(NC(=O)c3ccnn(-c4ccc(F)cc4)c3=O)cc2F)ccnc1N       UniProt Q12866     IC50         < 100 nM
3  Nc1nccc(Oc2ccc(NC(=O)c3ccnn(-c4ccc(F)cc4)c3=O)cc2F)c1-c1ccc(Oc2ccccc2)cc1       UniProt Q12866     IC50        < 1000 nM
4  Nc1nccc(Oc2ccc(NC(=O)c3ccnn(-c4ccc(F)cc4)c3=O)cc2F)c1C#CCN1CCOCC1       UniProt Q12866     IC50        < 1000 nM

Now look at this one.
// query Any idea what its IC50 is? The compound is Nc1nccc(Oc2ccc(NC(=O)c3ccnn(-c4ccc(F)cc4)c3=O)cc2F)c1C#CCC1CCNCC1
// result < 10 nM
